Sourced from patent US5114958A

MEASUREMENT_TARGET: Cyclooxygenase (Rattus norvegicus)
Sequence (Q63921 27-602): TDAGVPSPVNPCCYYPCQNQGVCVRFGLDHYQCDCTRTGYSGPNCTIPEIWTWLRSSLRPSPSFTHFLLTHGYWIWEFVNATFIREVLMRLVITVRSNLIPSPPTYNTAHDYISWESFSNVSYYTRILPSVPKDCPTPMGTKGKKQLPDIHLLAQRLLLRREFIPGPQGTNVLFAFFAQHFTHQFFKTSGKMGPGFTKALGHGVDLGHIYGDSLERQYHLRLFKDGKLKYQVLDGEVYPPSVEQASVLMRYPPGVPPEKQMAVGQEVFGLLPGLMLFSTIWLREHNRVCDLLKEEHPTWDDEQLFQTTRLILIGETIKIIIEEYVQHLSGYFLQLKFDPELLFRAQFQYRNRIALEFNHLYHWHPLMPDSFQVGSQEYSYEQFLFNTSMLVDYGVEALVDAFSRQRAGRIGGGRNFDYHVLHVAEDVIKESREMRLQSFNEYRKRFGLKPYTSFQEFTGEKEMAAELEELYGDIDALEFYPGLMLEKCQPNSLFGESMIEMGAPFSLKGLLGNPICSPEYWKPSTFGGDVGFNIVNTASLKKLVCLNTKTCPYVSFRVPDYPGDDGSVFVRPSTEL
TEST_METHOD_NOTES: ARBC whole cell cyclooxygenase assay (PGF2α formation in RBL-1 cells, A23187-stimulated)
ASSAY_CONDITIONS: inhibition of PGF2α formation, RBL-1 whole cells
PARAMETER: IC50 (nM)
The reply should contain only the number, in nM.

COMPOUND_STRUCTURE	IC50 [nM]
Cc1ccc(Cl)c(Nc2ccccc2-c2nsc(NC#N)n2)c1Cl	1230

For the next question, use this compound.
Respond only with IC50 recorded for `Cc1ccc(Cl)c(Nc2ccccc2-c2noc(=O)[nH]2)c1Cl`
13
